Target: T1, human Ly6E, N-terminal gD-tagged, stably expressed on PC3 cells (human, UniProt Q16553 21-101)
T1 construct: GPI-linked protein on cells; also called hu Ly6E; human Ly6E transfected PC3 cells; not shown: N-terminal gD tag of the retroviral vector
T1 sequence: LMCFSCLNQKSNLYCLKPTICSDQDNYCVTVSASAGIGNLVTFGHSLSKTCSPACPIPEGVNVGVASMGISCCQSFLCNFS
Experiment: cell-based Ly6E competitive binding assay on human Ly6E PC3 cells; competitor mouse 9B12
attribute_measured: binding result

{"binder": "humanized 9B12 variant v6 (antibody, V domains shown, IgG. k1 graft 43+44 / VH2 graft + 49; Residue changes derived) VH: EVQLVESGPALVKPTQTLTLTCTFSGFSLTGYSVNWIRQPPGKALEWLGMIWGDGSTDYNSALKSRLTISKDTSKNQVVLTMTNMDPVDTATYYCARDYYFNYASWFAYWGQGTLVTVSS VL: DIQMTQSPSSLSASVGDRVTITCSASQGISNYLNWYQQKPGKTVKLLIYYTSNLHSGVPSRFSGSGSGTDFTLTISSLQPEDFATYYCQQYSELPWTFGQGTKVEIK", "value": "no binding"}
{"binder": "humanized 9B12 variant v3 (antibody, V domains shown, Light chain changes derived) VH: EVQLVESGGGLVQPGGSLRLSCAASGFSLTGYSVNWVRQAPGKGLEWVGMIWGDGSTDYNSALKSRFTISRDNSKNTLYLQMNSLRAEDTAVYYCARDYYFNYASWFAYWGQGTLVTVSS VL: DIQMTQSPSSLSASVGDRVTITCSASQGISNYLNWYQQKPGKAPKLLIYYTSNLHSGVPSRFSGSGSGTDFTLTISSLQPEDFATYYCQQYSELPWTFGQGTKVEIK", "value": "no binding"}
{"binder": "humanized 9B12 variant v1 (antibody, V domains shown, IgG. k1 graft / VH2 graft + 49) VH: EVQLVESGPALVKPTQTLTLTCTFSGFSLTGYSVNWIRQPPGKALEWLGMIWGDGSTDYNSALKSRLTISKDTSKNQVVLTMTNMDPVDTATYYCARDYYFNYASWFAYWGQGTLVTVSS VL: DIQMTQSPSSLSASVGDRVTITCSASQGISNYLNWYQQKPGKAPKLLIYYTSNLHSGVPSRFSGSGSGTDFTLTISSLQPEDFATYYCQQYSELPWTFGQGTKVEIK", "value": "no binding"}
